# Assay: Plasma pharmacokinetics of MB076 after single IV dose in thigh-infected mice
# Type: in vivo, mouse
# Condition details: mouse; 12.5 mg/kg single IV, plasma, thigh-infected mice
# Method: A single dose PK study was conducted in mice infected with K. pneumoniae AR-BANK#0098 (producing KPC-2, OXA-9, and TEM-1) employing a thigh infection model. Escalating doses of MB076 (12.5, 25, 50, and 100 mg/kg) were intravenously administered via the tail vein. […] Plasma was separated by centrifugation at 4,000g for 10 min at 4°C and stored at −80°C until MB076 quantification was performed by LC/MS-MS bioanalysis. […]
Readout name: AUC(0-inf) (ng·h/mL)
Numbers only, in ng·h/mL.

I would be grateful if you could share the reported AUC(0-inf) for Nc1nnc(SCC(=O)N[C@@H](Cn2cc(C(=O)O)nn2)B(O)O)s1 [MB076] .
7200
